Values compiled from patent US20110059504A1.

Recorded Kd for the following binders
- assayed_target: T1, human myostatin (human, UniProt O14793 267-375, biotinylated in selections and radioactive assays (site not stated))
- T1 construct: Phage ELISA used both unbiotinylated and biotinylated myostatin; also called biotinylated human myostatin; myostatin-biotin
- T1 sequence (looked up): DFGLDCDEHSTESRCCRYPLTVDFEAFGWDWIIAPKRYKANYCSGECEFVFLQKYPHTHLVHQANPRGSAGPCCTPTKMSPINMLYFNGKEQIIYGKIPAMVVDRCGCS
- measurement_description: radioactive equilibrium binding assay
parameter: Kd (nM)

45927-A11 (designed binder, group M1-Aext) MTIPEIIIKVRGTQVVGSDMTVIVEFTNPLKETLRNVWVHLDGPGVTRPMKKMFQKIPGCSTVQWEEVVRPWVSGHRKLIASMSMLGLPFSLRFIPVYGELDVQIQRRDYKDDDDK = 65
45927-B3 (designed binder, group M1-Aext; extended FG loop; also called Mext (clone ID)) MTIPEIIIKVRGTQVVGSDMTVIVEFTNPLKETLRNVWVHLDGPGVTRPMKKMFLKIPGCSTVQWEEVVRPWVSGHRKLIASMSMLGLPFSLRFIPVYGELDVQIQRRDYKDDDDK = 86.7
